biological target: Jak2 (UniProt O60674); experiment: phosphorylation enrichment, bacterial display (enrichment ratio); higher = better substrate or ligand; peptides without Tyr show the background;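 further: 11-residue human phosphosite peptides and single-mutation variants displayed on the E. coli surface, counted by deep sequencing, each peptide's frequency after selection divided by its frequency in the unselected input library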;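 further: frequency after pTyr selection over input frequency; kinase dosed for 20-30% of maximal phosphorylation in three min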
Sequence (O60674 whole entry, looked up): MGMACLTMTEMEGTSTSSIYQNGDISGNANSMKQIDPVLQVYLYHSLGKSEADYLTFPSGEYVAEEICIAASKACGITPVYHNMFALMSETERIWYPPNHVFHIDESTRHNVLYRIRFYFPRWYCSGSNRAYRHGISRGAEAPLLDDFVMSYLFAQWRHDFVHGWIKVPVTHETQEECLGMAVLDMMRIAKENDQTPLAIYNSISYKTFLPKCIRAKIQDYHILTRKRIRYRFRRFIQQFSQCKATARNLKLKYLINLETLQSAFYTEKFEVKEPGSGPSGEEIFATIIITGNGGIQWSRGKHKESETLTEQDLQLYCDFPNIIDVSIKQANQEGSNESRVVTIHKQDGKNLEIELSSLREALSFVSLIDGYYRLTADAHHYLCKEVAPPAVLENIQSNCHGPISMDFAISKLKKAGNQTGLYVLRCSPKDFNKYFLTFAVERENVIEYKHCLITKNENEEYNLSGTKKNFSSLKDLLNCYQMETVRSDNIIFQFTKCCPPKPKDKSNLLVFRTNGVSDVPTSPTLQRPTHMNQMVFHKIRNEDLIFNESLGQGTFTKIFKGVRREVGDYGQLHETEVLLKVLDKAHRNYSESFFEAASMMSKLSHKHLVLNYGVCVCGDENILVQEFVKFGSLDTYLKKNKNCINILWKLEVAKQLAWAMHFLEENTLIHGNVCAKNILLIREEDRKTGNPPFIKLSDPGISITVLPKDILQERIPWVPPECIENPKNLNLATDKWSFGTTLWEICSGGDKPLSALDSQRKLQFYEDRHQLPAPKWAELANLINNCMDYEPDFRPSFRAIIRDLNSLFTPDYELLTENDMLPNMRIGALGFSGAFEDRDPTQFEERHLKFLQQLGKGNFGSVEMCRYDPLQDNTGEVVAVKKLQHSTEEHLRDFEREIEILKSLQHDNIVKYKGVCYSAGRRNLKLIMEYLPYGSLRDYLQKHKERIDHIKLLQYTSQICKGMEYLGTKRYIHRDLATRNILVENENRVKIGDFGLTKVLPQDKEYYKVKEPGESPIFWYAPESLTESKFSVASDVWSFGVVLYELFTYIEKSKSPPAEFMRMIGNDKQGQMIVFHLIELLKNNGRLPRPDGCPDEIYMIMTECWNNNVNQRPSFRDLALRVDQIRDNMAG
Rule: phosphorylation enrichment under 0.8 gives no, otherwise yes.

For orientation, consider the following solved cases.
INPUT_SEQUENCE	ASSIGNED_CATEGORY
TRHDEYLEVTK [MAP1A_Y2217]	no
LVMFIYVIFGM [SCN1A_Y1684_A1685V]	no
DLDLTYIYPNI [PTEN_Y27]	yes
DRQASYLDKVR [KRT16_Y131_L128Q]	no
RLPNGYGLAFR [DLK1_Y262_S260N_YF]	no
RKLVDYNSARH [BIN1_Y150_D151N]	no

Task item: Textbook exercise: given the entry KLVQLYGVCTK [BTK_Y461] , state whether its phosphorylation enrichment is greater than or equal to 0.8.
Reply: no

Task item: Textbook exercise: given the entry RNFGTYTAGLS [RHBDD1_Y264_D262G_YF] , state whether its phosphorylation enrichment is greater than or equal to 0.8.
Reply: no

Task item: Textbook exercise: given the entry AVAFVYFKSIG [ADGRL4_Y301_YF] , state whether its phosphorylation enrichment is greater than or equal to 0.8.
Reply: yes

Task item: Textbook exercise: given the entry AHADEYGAEAL [HBA1_Y25_G23D] , state whether its phosphorylation enrichment is greater than or equal to 0.8.
Reply: yes

Task item: Textbook exercise: given the entry IVLRSYPASDH [NID2_Y449_G453D] , state whether its phosphorylation enrichment is greater than or equal to 0.8.
Reply: no

Task item: Textbook exercise: given the entry QYKDKYLAKHN [CASK_Y712] , state whether its phosphorylation enrichment is greater than or equal to 0.8.
Reply: no

Task item: Textbook exercise: given the entry TLSGTYQYIIA [FOXL2_Y81_I80T] , state whether its phosphorylation enrichment is greater than or equal to 0.8.
Reply: yes

Task item: Textbook exercise: given the entry FEEDSYVTRSQ [RET_Y905_K907T_YF] , state whether its phosphorylation enrichment is greater than or equal to 0.8.
Reply: yes

Task item: Textbook exercise: given the entry FIILIYAMKKK [SLCO1B1_Y645_YF] , state whether its phosphorylation enrichment is greater than or equal to 0.8.
Reply: no

Task item: Textbook exercise: given the entry YSQNIYIQNRN [PKP2_Y631] , state whether its phosphorylation enrichment is greater than or equal to 0.8.
Reply: no

Task item: Textbook exercise: given the entry QEEPEYWDQET [HLA-A_Y83_G80E] , state whether its phosphorylation enrichment is greater than or equal to 0.8.
Reply: yes

Task item: Textbook exercise: given the entry LGEGSYGKVKE [STK11_Y60] , state whether its phosphorylation enrichment is greater than or equal to 0.8.
Reply: yes

Task item: Textbook exercise: given the entry NQSVRYDSSLK [ABCC8_Y1353_L1349Q] , state whether its phosphorylation enrichment is greater than or equal to 0.8.
Reply: no

Task item: Textbook exercise: given the entry AFPVSYSSSSA [RET_Y687_G691S] , state whether its phosphorylation enrichment is greater than or equal to 0.8.
Reply: no

Task item: Textbook exercise: given the entry GTFVIYVRFSG [FLNB_Y1687_G1691S_YF] , state whether its phosphorylation enrichment is greater than or equal to 0.8.
Reply: yes

Task item: Textbook exercise: given the entry WLQKLYNNFVN [MYO5C_Y526] , state whether its phosphorylation enrichment is greater than or equal to 0.8.
Reply: yes

Task item: Textbook exercise: given the entry KDAGDYKFKAK [LRIT3_Y326_C328Y_YF] , state whether its phosphorylation enrichment is greater than or equal to 0.8.
Reply: no
